Experiment: Antimicrobial activity against Aeromonas hydrophila subsp. hydrophila ATCC 7966 harboring plasmid pEX19Gm by agar dilution method
Type: functional
ASSAY_METRIC: MIC (µg/mL)
Only the number, expressed in µg/mL, is required.

Some entries whose results are on file:
COMPOUND	UNIT_INFO	MIC
COc1cc(Cc2cnc(N)nc2N)cc(OC)c1OC	µg/mL	16
CCC[C@@H]1C[C@@H](C(=O)N[C@@H]([C@H]2O[C@H](SC)[C@H](O)[C@@H](O)[C@H]2O)[C@@H](C)O)N(C)C1	µg/mL	128
CC[n+]1c(-c2ccccc2)c2cc(N)ccc2c2ccc(N)cc21.[Br-] [HOMIDIUM BROMIDE]	µg/mL	128

Return MIC (reported value) for this compound: CN(C)c1ccc(O)c2c1C[C@H]1C[C@H]3[C@H](N(C)C)C(O)=C(C(N)=O)C(=O)[C@@]3(O)C(O)=C1C2=O
1

Recorded values, source ChEMBL document CHEMBL1255307.
